system: TK-10 renal; assay: NCI tumour cell line growth inhibition, 48 h
Hi there, I'd appreciate the recorded TGI for every entry that follows.

Record excerpt, results attached:
input: Can you look up TGI on TK-10 renal for O=c1c2ccccc2c2nc3ccccc3nc2n1C1CCCCC1 ?
output: > 100 µM

input: Also, COC(=O)C1(Cc2ccccc2)Cc2ccc3c(c2C1=O)CCC3 (stereo not given) please.
output: > 84 µM

Field: TGI. Fill in for each record below.
1. Cc1cc(O)cc2c1O[C@@]1(C)CCC3[C@@]4(C)CC[C@H](O)C(C)(C)C4CC[C@@]3(C)[C@H]1C2 (stereo not given in full)
2. CCOC(=O)c1c(C(F)(F)F)n([O-])c2ccc(OC)cc2[n+]1=O
3. Cc1cc(Cl)ccc1N=C1NC(=O)C(CC(=O)Nc2ccc(Cl)cc2Cl)S1 (stereo not given)
4. OC1CN2CCS[C@H]2C(O)C1O (stereo not given in full)
5. O=C(OCC1OC(c2nn[nH]n2)C(OC(=O)c2ccccc2)C1OC(=O)c1ccccc1)c1ccccc1 (stereo not given)
6. Cc1nc(NC(=O)CCCN2C(=O)c3cccc4cccc(c34)C2=O)sc1C(=O)Nc1cc(C(=O)NCCCN(C)C)n(C)c1
7. CN(C)CCNC(=O)c1cccc2[nH]c(-c3ccccc3)nc12
8. CS(=O)(=O)Nc1ccc(Nc2c3ccccc3nc3ccccc23)cc1

output:
["29 µM", "> 100 µM", "> 100 µM", "> 100 µM", "> 100 µM", "> 100 µM", "59.9 µM", "9.52 µM"]

* * *

test system: SF-295 CNS; experiment: NCI tumour cell line growth inhibition, 48 h
measurement.type: TGI

Record excerpt, results attached:
input: GET /values?readout=TGI&item= CC1=C(C(=O)Nc2ccc(Cl)c(Cl)c2)C(c2ccco2)C(C(=O)Nc2ccc(Cl)c(Cl)c2)=C(C)N1
output: 20.5 µM

input: Also, Cc1ccccc1CN1CC=c2ccccc2=N1 please.
output: > 100 µM

input: Also, COC(=O)C(Cc1ccccc1)OC(=O)C(N)CC(=O)O (centres undefined) please.
output: > 100 µM

Field: TGI. Fill in for each record below.
1. O=C(O)c1ccc(C(c2c(O)c3ccccc3oc2=O)c2c(O)c3ccccc3oc2=O)cc1
2. N#CC1=C(N)OC(c2ccc([N+](=O)[O-])cc2)C1(C#N)C#N (centres undefined)
3. CCC(C)C(NC(=O)C1CCCN1C(=O)C(NC(=O)C(C)N)C(C)C)C(N)=O (centres undefined)
4. CC12CCC[C@@](C)(C(=O)OC3OC(CO)C(O)C(O)C3O)[C@H]1CCC13CC4CC(OC4(CO)[C@H]1O)[C@@H]23 (some centres undefined)
5. CCCCn1c2c(n(CCCC)c1=S)-c1c(n(CCCC)c(=S)n1CCCC)SSSS2
6. COc1ccccc1CNCCCN1C(=O)c2ccc3c4c(ccc(c24)C1=O)C(=O)N(CCCNCCCN)C3=O

output:
["> 100 µM", "> 71.3 µM", "> 100 µM", "> 100 µM", "> 100 µM", "4.61 µM"]

* * *

test system: DMS 114 small cell lung; assay: NCI tumour cell line growth inhibition, 48 h
measurement.type: TGI

Record excerpt, results attached:
input: Can you look up TGI on DMS 114 small cell lung for O=[N+]([O-])c1nccn1COCCF ?
output: > 100 µM

input: Also, Nc1c(-c2ccc(Cl)cc2Cl)[n+]([O-])c2ccccc2[n+]1[O-] please.
output: > 100 µM

input: Also, O=C(O)CC/C(=N\Nc1nsc2ccccc12)c1ccc(Cl)cc1 please.
output: > 100 µM

input: Also, O=C1C(=O)C(Br)(Br)C(Br)=C1Br please.
output: 40.8 µM

input: Also, COc1ccc2nc3ccccc3c(NCCCCCCN(C)CCCl)c2c1 please.
output: 1.69 µM

Now look at this one.
input: Can you look up TGI on DMS 114 small cell lung for O=C(NO)C12C3C4C1C1C2C3C41C(=O)NO (stereo unspecified) ?
output: > 100 µM

* * *

tested on: ACHN renal; assay: NCI tumour cell line growth inhibition, 48 h
Hi there, I'd appreciate the recorded TGI for every entry that follows.

input: GET /values?readout=TGI&item= CCOC(=O)NC(NC(C)CC)(C(F)(F)F)C(F)(F)F (stereo not given)
output: > 100 µM

input: Also, CC(C)NCC(O)c1ccc(OCc2ccccc2)c(OCc2ccccc2)c1-c1ccccc1 (stereo not given) please.
output: 3.06 µM

input: Also, COc1cc(-c2cc(-c3nc4ccc(Cl)cc4[nH]3)[nH]n2)cc(OC)c1OC please.
output: 12.9 µM

input: Also, CCOC(=O)c1sc(=S)c2c(C(=O)OCC)c(C(=O)OCC)sc2c1C(=O)OCC please.
output: 39.4 µM

input: Also, Nc1nc2nc[nH]c2c(=O)[nH]1 please.
output: > 100 µM

input: Also, O=C(NO)C12C3C4C1C1C2C3C41C(=O)NO (stereo not given) please.
output: > 100 µM

input: Also, CCOC(=O)C1=c2[nH]c3cccc4cccc(c43)n2C=C(C(C)=O)C1CC(C)=O (stereo not given) please.
output: > 100 µM

input: Also, CCn1cnc2c(Nc3cccc(Cl)c3)nc(N[C@@H]3CCCC[C@@H]3N)nc21 please.
output: 3.6 µM

input: Also, CCC(C)C(NC(=O)C1CCCN1C(=O)C(NC(=O)C(C)N)C(C)C)C(N)=O (stereo not given) please.
output: > 100 µM

input: Also, COc1ccc(/C=C2\CCC(C)(CN(C)C)C2=O)cc1 (stereo not given) please.
output: > 100 µM

Field: TGI. Fill in for each record below.
1. O=C(O)CC/C(=N\Nc1nsc2ccccc12)c1ccc(Cl)cc1
2. O=C(OCC1OC(c2nn[nH]n2)C(OC(=O)c2ccccc2)C1OC(=O)c1ccccc1)c1ccccc1 (stereo not given)
3. NCCCN1CCN(CC(=O)O)CCN(CCCN)CCN(CC(=O)O)CC1
4. NC1=NNC2(C(N)=N1)c1ccccc1-c1ccccc12
5. COc1ccccc1Cn1nc(OC)c2cc([N+](=O)[O-])ccc21
6. O=[N+]([O-])c1cc(-[n+]2cc([O-])on2)ccc1F
7. CSc1nc2sc3cc(Cl)ccc3n2c(=N)c1C#N
8. N#CCCN(c1ccc(-c2nnc(NC(=O)CNNC(=O)CC(=O)Nc3ccccc3)s2)cc1)S(=O)(=O)c1ccccc1

output:
1: > 80.6 µM; 2: > 100 µM; 3: > 100 µM; 4: > 10 µM; 5: > 100 µM; 6: 30.7 µM; 7: > 100 µM; 8: > 100 µM

* * *

test system: M14 melanoma; assay: NCI tumour cell line growth inhibition, 48 h; in the data active means GI50 below about 0.43 µM; inactive means the rest
Select the matching outcome among class 1 for active, class 0 for inactive

Some entries whose results are on file:
input: Give the logged outcome of this assay for the following molecule: Nc1ccc(/C=N/Nc2ccnc3c(N)cccc23)c2cccnc12
output: class 0

input: Also, N.N.NCCCCN.O=C([O-])C1(C(=O)[O-])CCC1.O=C([O-])C1(C(=O)[O-])CCC1.[Pt+4].[Pt+4] please.
output: class 0

input: Also, COc1cc(-c2cc(-c3nc4ccc(Cl)cc4[nH]3)[nH]n2)cc(OC)c1OC please.
output: class 0

input: Also, COC1=CC(c2ccc[nH]2)=N/C1=C\c1ccc[nH]1 please.
output: class 1

input: Also, NS(=O)(=O)c1ccc(N2N=C3c4ccccc4CC3C2c2ccc(Cl)cc2)cc1 (stereo not given) please.
output: class 0

---
input: Give the logged outcome of this assay for the following molecule: COc1cc(-n2cc(-c3ccc(Cl)cc3)[nH]c2=O)cc(OC)c1OC
output: class 0

input: Also, CCn1cnc2c(Nc3cccc(Cl)c3)nc(N[C@@H]3CCCC[C@@H]3N)nc21 please.
output: class 0

input: Also, Cn1cc(C2=C(c3cn(CCN)c4ccccc34)C(=O)NC2=O)c2ccccc21 please.
output: class 0

input: Also, COc1cc(/C=C2\COc3ccc(O)c(O)c3C2=O)cc(OC)c1 please.
output: class 0

input: Also, COc1cc2nc(Nc3cccc(F)c3)nc(Nc3cc(C)[nH]n3)c2cc1OC please.
output: class 0

* * *

system: NCI-H460 lung; assay: NCI tumour cell line growth inhibition, 48 h
measurement.type: TGI

input: GET /values?readout=TGI&item= CCCCCCCCCCCCCCCCCCOCC(CO[P+](=O)O)OCCCCCCCCCCCCCCCCCC (stereo not given)
output: > 50 µM

input: Also, COc1cccc(N2C(=O)CSC2c2cc(OC)c(OC)c(OC)c2)c1 (stereo not given) please.
output: > 100 µM

input: Also, Cc1ccc(S(=O)(=O)OC2C(C3COC(C)(C)O3)OC3OC(C)(C)OC32)cc1 (stereo not given) please.
output: > 100 µM

input: Also, CC(C)n1c2c([n+](C)c1/C=C/c1ccccc1)C(=O)c1ccccc1C2=O please.
output: 2.43 µM

input: Also, COc1ccc(/C=C/C(=O)N[C@@H]2C(=O)N3[C@@H]2SC(C)(C)[C@@H]3C(=O)O)cc1 please.
output: > 100 µM

Field: TGI. Fill in for each record below.
1. NC1=NNC2(C(N)=N1)c1ccccc1-c1ccccc12
2. CCOC(=O)c1c(C(F)(F)F)n([O-])c2ccc(OC)cc2[n+]1=O
3. CC(CO)C1=CC(C#CCOCc2ccccc2)N(C(=O)Oc2ccccc2)c2ccccc21 (stereo not given)
4. COc1ccc2c(c1)CC[C@@H]1[C@@H]2CC[C@]2(C)C(c3ccco3)=C(C=O)C[C@@H]12
5. COc1ccc2oc(C(=O)N3CC(CCl)c4ccc([N+](=O)[O-])cc43)cc2c1 (stereo not given)
6. O=[n+]1c2ccccc2n([O-])c2cc(Br)ccc21

output:
1. > 10 µM
2. 15.7 µM
3. 91.8 µM
4. 35.7 µM
5. > 100 µM
6. > 100 µM
